Where do the numbers come from? From patent US8258295B2.

// pIC50 lookup, one value per entry
tested on: HUVEC (human umbilical vein endothelial cell); assay: MTT cytotoxicity on HUVEC; type: cell-based; conditions: 24 hr culture, read-out: IC50 of 24-hour culture HUVEC
pIC50: −log10 of the molar value.
Measure name: pIC50

1. NCCCCCNc1nc(NCCc2ccc(O)cc2)nc(Nc2ccc(F)cc2)n1 :: 4.50
2. NCCCCCNc1nc(NCCc2ccc(S(N)(=O)=O)cc2)nc(Nc2cccc(F)c2)n1 :: 4.04
3. NCCCCCNc1nc(NCCc2ccc(N)cc2)nc(Nc2ccc(F)cc2)n1 :: 4.29
4. NCCCCCNc1nc(NCCc2ccc(O)cc2)nc(Nc2cccc(F)c2)n1 :: 4.73

----------
system: peripheral blood mononuclear leukocytes (PBML); assay: PBML RNA synthesis ([3H]-uridine); assay type: cell-based; conditions: Homo sapiens, Leukocyte; con A stimulated PBML, 48 hr; read-out: RNA Synthesis Con A
pIC50: −log10 of the molar value.
Measure name: pIC50

1. NCCCCCNc1nc(NCCc2ccc(O)cc2)nc(Nc2ccc(F)cc2)n1 :: 5.22

----------
test system: peripheral blood mononuclear leukocytes (PBML); experiment: PBML cytotoxicity (MTT); type: cell-based, human; conditions: PWM stimulated PBML, 48 hr; read-out: Cytotoxicity PWM
pIC50: −log10 of the molar value.
// pIC50 lookup, one value per entry
Measure name: pIC50

1) NCCCCCNc1nc(NCCc2ccc(O)cc2)nc(Nc2ccc(F)cc2)n1 :: < 5.00
2) NCCCCCNc1nc(NCCc2ccc(O)cc2)nc(Nc2cccc(F)c2)n1 :: < 5.00
3) NCCCCCNc1nc(NCCc2ccc(S(N)(=O)=O)cc2)nc(Nc2cccc(F)c2)n1 :: < 5.00

----------
tested on: peripheral blood mononuclear leukocytes (PBML); test: PBML RNA synthesis ([3H]-uridine); type: cell-based; details: Homo sapiens, Leukocyte; resting PBML, 48 hr; read-out: RNA Synthesis Resting
pIC50: −log10 of the molar value.
// pIC50 lookup, one value per entry
Measure name: pIC50

1) NCCCCCNc1nc(NCCc2ccc(O)cc2)nc(Nc2ccc(F)cc2)n1 :: 5.13
2) NCCCCCNc1nc(NCCc2ccc(O)cc2)nc(Nc2cccc(F)c2)n1 :: 5.17
3) NCCCCCNc1nc(NCCc2ccc(S(N)(=O)=O)cc2)nc(Nc2cccc(F)c2)n1 :: 5.24

----------
molecular target: UniProtKB P01375; test: TNFα-induced apoptosis in WEHI-13VAR cell line; format: cell-based; conditions: 5 × 10^−6 M
Sequence (P01375 77-233 limits assumed, species assumed): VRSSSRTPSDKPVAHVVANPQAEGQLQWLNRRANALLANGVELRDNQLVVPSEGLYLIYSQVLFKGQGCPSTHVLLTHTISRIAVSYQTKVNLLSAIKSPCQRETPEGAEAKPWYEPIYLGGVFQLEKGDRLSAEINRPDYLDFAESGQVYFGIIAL
Classification field: Satisfied = inhibition at 5 µM at or over 8%; Not satisfied = inhibition at 5 µM under 8%.

1. NCCCCCNc1nc(Nc2ccc(S(N)(=O)=O)cc2)nc(Nc2cccc(F)c2)n1 [Compound VIII] :: Satisfied
2. NCCCCCNc1nc(NCCc2ccc(C(N)=O)cc2)nc(Nc2cccc(F)c2)n1 [Compound VI] :: Satisfied
3. NCCCCCNc1nc(NCCc2ccc(O)cc2)nc(Nc2cccc(F)c2)n1 [Compound I] :: Satisfied
4. NCCCCCNc1nc(NCCc2ccc(N)cc2)nc(Nc2ccc(F)cc2)n1 [Compound IV] :: Not satisfied
